- targetDesc: T1, Human IL-33-his (human, UniProt O95760 112-270, biotinylated with EZ-Link NHS-Biotin where used as IL-33-his-biotin)
- T1 construct: Used plain (SPR, cell assays) and biotinylated (ELISA); also called IL-33-his-biotin
- T1 sequence: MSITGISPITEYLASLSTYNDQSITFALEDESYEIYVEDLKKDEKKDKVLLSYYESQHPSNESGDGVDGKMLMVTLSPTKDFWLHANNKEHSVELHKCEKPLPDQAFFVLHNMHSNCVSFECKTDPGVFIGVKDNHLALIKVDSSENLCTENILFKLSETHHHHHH
- measurementDescription: competition ELISA, antibody mixed with IL-33-his-biotin, ST2-Fc on plate; competitor ST2-Fc
endpointLabel: IC50 (nM)
Kindly provide the numeric value in nM only, without the unit symbol.

Name the recorded IC50 for 874F7-ch (antibody, human IgG4 S228P, kappa, V domains shown, Chimeric: human IgG4 (S228P) and human kappa constant regions; also called chimeric antibody 874F7-ch) VH: QVQLKESGPGLVAPSHSLSITCNVSGFSLSKYGVHWIRQIPGRGLDWLGVLRAGGSTGYNSALMSRLSISKDSSKSQVFLKMNDLRTDDTAVYFCVRDHYYYSSYGGFVYWGQGTLVTVSA VL: DIQMTQSPASQSASLGESVTITCLASQTIGAWLAWYRQQPGKSPQLLIYAATRLADGVPSRFSGSGSGTEFSFKINNLQAEDFVSYYCQQLDSSPYTFGGGTRLEMRT .
0.634
